# Tested System: Leucine-rich repeat serine/threonine-protein kinase 2 (Homo sapiens)
# Sequence (Q5S007 whole entry): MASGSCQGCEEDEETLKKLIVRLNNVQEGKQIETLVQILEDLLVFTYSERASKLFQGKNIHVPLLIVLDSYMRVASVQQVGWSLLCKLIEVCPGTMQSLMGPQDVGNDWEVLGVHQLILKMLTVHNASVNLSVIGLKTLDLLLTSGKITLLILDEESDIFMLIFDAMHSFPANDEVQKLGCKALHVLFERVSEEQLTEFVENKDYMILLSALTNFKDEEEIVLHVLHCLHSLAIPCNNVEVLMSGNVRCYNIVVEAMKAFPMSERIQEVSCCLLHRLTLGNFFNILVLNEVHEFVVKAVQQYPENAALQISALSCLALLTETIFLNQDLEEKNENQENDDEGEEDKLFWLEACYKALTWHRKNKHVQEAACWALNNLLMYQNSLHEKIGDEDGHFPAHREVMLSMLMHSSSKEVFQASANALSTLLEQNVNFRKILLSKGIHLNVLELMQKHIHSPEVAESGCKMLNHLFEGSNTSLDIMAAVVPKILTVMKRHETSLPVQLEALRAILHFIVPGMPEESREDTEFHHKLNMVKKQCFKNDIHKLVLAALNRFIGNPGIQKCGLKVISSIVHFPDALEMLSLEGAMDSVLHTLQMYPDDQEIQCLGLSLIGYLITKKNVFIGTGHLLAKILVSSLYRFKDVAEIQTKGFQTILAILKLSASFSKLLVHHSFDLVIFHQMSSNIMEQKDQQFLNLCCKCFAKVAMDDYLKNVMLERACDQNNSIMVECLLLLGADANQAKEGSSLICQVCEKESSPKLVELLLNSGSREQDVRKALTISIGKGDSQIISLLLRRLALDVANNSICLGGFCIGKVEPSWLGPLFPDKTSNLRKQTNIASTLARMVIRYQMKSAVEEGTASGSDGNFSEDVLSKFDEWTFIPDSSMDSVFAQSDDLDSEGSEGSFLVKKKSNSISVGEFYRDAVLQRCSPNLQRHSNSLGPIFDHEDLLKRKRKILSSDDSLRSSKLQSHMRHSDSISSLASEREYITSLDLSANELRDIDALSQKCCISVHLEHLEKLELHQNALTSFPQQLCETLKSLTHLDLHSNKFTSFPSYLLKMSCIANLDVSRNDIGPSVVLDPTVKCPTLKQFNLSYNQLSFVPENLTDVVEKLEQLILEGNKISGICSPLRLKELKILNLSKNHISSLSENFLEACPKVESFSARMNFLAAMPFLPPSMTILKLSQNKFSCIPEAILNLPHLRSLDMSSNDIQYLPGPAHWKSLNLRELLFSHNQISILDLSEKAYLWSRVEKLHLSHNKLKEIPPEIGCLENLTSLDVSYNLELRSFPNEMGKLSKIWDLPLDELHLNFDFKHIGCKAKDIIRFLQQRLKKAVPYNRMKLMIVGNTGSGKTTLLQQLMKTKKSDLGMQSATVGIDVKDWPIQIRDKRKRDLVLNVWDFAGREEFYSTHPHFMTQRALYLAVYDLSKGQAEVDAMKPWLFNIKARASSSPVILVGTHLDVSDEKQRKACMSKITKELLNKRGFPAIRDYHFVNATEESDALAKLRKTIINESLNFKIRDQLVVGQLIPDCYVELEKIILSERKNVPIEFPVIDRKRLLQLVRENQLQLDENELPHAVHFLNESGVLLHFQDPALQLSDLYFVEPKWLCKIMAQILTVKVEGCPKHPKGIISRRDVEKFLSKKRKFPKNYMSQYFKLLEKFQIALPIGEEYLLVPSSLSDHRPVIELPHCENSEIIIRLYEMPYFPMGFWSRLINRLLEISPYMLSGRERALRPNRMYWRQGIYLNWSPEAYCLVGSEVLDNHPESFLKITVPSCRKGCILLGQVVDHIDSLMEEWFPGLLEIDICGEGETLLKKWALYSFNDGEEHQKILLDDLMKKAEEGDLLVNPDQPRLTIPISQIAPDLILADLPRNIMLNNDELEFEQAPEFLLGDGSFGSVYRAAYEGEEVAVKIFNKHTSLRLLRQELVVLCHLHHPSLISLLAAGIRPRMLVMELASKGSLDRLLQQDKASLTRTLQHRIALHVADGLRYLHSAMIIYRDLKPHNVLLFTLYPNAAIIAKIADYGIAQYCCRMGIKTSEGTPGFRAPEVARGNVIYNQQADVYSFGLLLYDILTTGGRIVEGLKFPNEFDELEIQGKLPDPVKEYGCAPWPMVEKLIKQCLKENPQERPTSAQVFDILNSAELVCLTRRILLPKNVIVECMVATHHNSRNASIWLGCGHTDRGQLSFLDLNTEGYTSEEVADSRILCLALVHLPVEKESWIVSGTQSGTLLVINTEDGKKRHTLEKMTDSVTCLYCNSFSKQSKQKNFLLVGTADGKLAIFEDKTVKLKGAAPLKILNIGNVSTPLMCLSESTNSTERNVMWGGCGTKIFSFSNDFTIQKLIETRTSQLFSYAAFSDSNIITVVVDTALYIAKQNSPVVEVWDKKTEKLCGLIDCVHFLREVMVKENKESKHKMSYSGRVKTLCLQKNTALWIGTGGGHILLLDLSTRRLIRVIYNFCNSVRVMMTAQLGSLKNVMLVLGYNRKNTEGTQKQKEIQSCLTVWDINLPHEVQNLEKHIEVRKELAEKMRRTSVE
# Test Description: LRRK2 Wild-Type and G2019S Kinase Activity Assay
# Experimental: The LRRK2 kinase was obtained from Invitrogen (Life Technologies Corporation) and comprises residue 970 to 2527 of the full length human wild-type LRRK2 kinase, or a similar sequence with the G2019S mutation. […] TR-FRET was measured by excitation of the terbium-donor with 340 nm light and subsequent (delay time 100 us) measurement of terbium and fluorescein emission at 495 nm and 520 nm, respectively, over a time window of 1000 us. […]
Listing of recorded pIC50 by entry.
Reminder that pIC50 is minus the log10 of a molar concentration.

Worked cases, answers included:
{"Compound": "Cc1c2c(nn1C1CCOC[C@]1(C)F)OCCCn1nc(Cl)c3cnc(nc31)N2 (some centres undefined)", "Test Value": 7.05}
{"Compound": "Cc1c2c(nn1[C@H]1CCCOC1)OCCCn1nc(Cl)c3cnc(nc31)N2 (single isomer, unassigned)", "Test Value": 7.60}
{"Compound": "Cc1c2c(nn1C1CCOC[C@@]1(C)F)OCCCn1nc(Cl)c3cnc(nc31)N2 (some centres undefined)", "Test Value": 7.89}

Now look at this entry.
Param item: F[C@H]1COCC[C@@H]1n1nc2c(c1Br)Nc1ncc3c(Cl)nn(c3n1)CCCO2 ; param system: Leucine-rich repeat serine/threonine-protein kinase 2 (Homo sapiens); output pIC50: 7.96

---

# Tested System: Leucine-rich repeat serine/threonine-protein kinase 2 [G2019S] (Homo sapiens, UniProt Q5S007, G2019S)
# Sequence (Q5S007 whole entry G2019S): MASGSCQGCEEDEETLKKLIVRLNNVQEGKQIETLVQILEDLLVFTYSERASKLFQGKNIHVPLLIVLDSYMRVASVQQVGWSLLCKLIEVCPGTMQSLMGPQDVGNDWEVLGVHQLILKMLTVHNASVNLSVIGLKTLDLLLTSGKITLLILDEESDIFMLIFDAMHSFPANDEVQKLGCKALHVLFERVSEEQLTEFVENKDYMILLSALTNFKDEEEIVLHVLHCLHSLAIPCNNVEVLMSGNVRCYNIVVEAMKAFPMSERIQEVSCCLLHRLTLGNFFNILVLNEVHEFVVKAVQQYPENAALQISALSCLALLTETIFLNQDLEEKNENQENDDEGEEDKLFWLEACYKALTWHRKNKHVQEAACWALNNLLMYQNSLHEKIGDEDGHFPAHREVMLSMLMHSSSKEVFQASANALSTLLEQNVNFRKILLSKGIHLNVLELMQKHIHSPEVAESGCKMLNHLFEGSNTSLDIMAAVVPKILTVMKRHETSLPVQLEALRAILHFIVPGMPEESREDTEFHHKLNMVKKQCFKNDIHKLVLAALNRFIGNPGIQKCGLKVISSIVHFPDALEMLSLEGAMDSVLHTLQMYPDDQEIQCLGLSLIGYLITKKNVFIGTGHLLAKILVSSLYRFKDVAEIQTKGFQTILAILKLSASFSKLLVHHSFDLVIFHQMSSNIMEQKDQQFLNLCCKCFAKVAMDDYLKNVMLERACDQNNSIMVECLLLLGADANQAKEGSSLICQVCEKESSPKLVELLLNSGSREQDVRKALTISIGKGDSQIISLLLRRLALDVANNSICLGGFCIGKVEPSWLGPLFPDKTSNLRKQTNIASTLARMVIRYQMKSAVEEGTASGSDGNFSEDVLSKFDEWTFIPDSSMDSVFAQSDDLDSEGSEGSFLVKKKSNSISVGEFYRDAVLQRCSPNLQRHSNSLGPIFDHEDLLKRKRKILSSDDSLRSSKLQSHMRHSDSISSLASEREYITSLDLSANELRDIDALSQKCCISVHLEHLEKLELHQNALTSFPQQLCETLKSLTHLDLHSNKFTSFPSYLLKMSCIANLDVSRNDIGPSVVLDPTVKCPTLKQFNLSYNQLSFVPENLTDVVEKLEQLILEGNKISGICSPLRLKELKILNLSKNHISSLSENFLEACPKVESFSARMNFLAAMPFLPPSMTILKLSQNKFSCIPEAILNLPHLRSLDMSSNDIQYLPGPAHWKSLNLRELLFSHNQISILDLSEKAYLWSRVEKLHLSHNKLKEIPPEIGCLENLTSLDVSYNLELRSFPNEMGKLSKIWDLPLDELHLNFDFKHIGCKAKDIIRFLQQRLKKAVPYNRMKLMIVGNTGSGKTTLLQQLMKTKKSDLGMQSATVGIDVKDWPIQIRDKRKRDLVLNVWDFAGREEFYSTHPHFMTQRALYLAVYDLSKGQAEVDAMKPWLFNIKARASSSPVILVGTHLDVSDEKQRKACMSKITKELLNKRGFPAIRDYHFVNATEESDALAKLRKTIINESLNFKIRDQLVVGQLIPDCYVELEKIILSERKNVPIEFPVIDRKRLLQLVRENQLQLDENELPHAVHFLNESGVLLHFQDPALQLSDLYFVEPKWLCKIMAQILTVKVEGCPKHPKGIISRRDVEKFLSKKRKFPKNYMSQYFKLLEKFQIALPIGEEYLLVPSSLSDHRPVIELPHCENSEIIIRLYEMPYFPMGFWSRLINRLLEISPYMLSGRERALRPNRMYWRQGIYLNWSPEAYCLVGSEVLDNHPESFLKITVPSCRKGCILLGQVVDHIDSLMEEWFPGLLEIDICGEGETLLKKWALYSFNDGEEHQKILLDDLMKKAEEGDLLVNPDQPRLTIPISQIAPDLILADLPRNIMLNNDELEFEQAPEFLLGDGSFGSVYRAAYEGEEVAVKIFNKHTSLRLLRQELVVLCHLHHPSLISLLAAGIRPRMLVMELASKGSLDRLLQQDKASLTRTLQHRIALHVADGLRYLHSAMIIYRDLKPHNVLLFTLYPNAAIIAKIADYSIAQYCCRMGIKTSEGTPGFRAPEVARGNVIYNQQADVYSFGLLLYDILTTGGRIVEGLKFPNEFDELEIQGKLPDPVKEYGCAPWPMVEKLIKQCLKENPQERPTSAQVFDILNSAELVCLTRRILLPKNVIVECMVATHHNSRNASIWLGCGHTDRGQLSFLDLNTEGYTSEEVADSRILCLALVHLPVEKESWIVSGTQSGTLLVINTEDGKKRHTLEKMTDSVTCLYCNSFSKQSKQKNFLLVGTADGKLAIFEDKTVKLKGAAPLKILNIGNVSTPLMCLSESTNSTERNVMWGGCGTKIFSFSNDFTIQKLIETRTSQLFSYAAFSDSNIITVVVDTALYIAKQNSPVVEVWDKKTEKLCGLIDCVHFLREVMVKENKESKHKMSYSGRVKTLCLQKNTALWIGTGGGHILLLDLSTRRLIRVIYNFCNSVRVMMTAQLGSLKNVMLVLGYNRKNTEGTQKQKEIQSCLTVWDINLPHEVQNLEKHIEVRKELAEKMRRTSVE
# Test Description: LRRK2 Wild-Type and G2019S Kinase Activity Assay
Experimental Readout: IC50 (nM)
Give a bare numeral; the unit nM is implied.

Worked cases, answers included:
{"Compound": "Cc1c2c(nn1[C@@H]1CCOC(C)(C)C1)OCCCn1nc(Cl)c3cnc(nc31)N2 [US11780851, Example 43]", "Unit Of Measure": "nM", "IC50": 5.3}
{"Compound": "Cc1c2c(nn1[C@H]1CCO[C@@H](C)C1)OCCCn1nc(Cl)c3cnc(nc31)N2 [US11780851, Example 51]", "Unit Of Measure": "nM", "IC50": 3.6}

Query Cc1c2c(nn1C1CC1(F)F)OCCCn1nc(Cl)c3cnc(nc31)N2 (stereo not drawn) [US11780851, Example 39] yields IC50 of 7.8

---

# Tested System: Leucine-rich repeat serine/threonine-protein kinase 2 (Homo sapiens)
# Test Description: LRRK2 Wild-Type and G2019S Kinase Activity Assay
Listing of recorded IC50 by entry.
Give a bare numeral; the unit nM is implied.

Query Cc1c2c(nn1C1CCOCC1)OCCCn1nc(Cl)c3cnc(nc31)N2 yields IC50 of 9.8

Query Cc1c2c(nn1C1C3COCC31)OCCCn1nc(Cl)c3cnc(nc31)N2 (stereo not drawn) yields IC50 of 28

Query Cc1c2c(nn1C1(C(N)=O)CC1)OCCCn1nc(Cl)c3cnc(nc31)N2 yields IC50 of 23

Query Cc1c2c(nn1C1CCOCC1)OCCCn1nc(Br)c3cnc(nc31)N2 yields IC50 of 8

Query Cc1c2c(nn1[C@@H]1CCOC[C@H]1C)OCCCn1nc(Cl)c3cnc(nc31)N2 yields IC50 of 10

Query Cc1c2c(nn1[C@@H]1CCOC[C@@H]1F)OCCCn1nc(Cl)c3cnc(nc31)N2 yields IC50 of 15

Query F[C@@H]1COCC[C@H]1n1nc2c(c1Br)Nc1ncc3c(Cl)nn(c3n1)CCCO2 yields IC50 of 17

Query Cc1c2c(nn1[C@H]1CC1(F)F)OCCCn1nc(Cl)c3cnc(nc31)N2 yields IC50 of 28
